For each entry below, report its apparent KD of MS2 coat protein value.
# Test system: MS2 coat protein
# protocol-description: apparent KD of MS2 coat protein; designed switch direction (-1 OFF switch, 1 ON switch): -1; higher = weaker reporter binding
# reported-conditions: input ligand: FMN 200 uM
Please format your answer as a value with the unit trailing.

Q. Fill blank: measured apparent KD of MS2 coat protein of the sequence CACAAUGACGUCAGGAUAUGUAAACAGCGAAGUUUGUAGAAGGGACAUGAGGAUCACCCAUGUAUAACUGGGAG [Eternabot (L2) Solution 27] (Eterna round: R97, puzzle: Brourd's mod of Exclusion 4) is ____.
A. 220 nM

Q. For the sequence GUAAUUGAUGUCAGGAUAUCAGGGCCACAAUGCUAUGAGAAGGGACAUGAGGAUCACCCAUGUAAAAGUUCAUG [BmEX4 B.16] (Eterna round: R97, puzzle: Brourd's mod of Exclusion 4) , what apparent KD of MS2 coat protein is on record?
A. 180 nM

Q. Quick one: apparent KD of MS2 coat protein of GCAUCGGCAGGAUAUACGCCGUAUGACAUGAGGAUCACCCAUGUUCCCGAGUCACAGAAAGUAGAAGGGCUGGAUA [Eternabot (L2) Solution 70] (Eterna round: R97, puzzle: Exclusion 5) ?
A. 236 nM

Q. Entry CAAUUAAUUAAUUAAUAAUACAUGAGGAUCACCCAUGUAGAUCCUACAUACAAGCUAAGUAGCUCGUCUUAUAAUUA [Stov1/2-A3] (Eterna round: R97, puzzle: Sensor, turn-off variant 1) has what apparent KD of MS2 coat protein?
A. 417 nM

Q. Reported apparent KD of MS2 coat protein, sequence AGAUGCUCAAGUCGACAUGAGGAUCACCCAUGUACAGUUAACGAGGAUAUCCGAGAUAAAUAAUAGGAGAAGGCGUGAUCAUGA [Ex NG3 #3] (Eterna round: R96, puzzle: Exclusion NG 3) : ____
A. 154 nM

Q. Please give the measured apparent KD of MS2 coat protein for this sequence: GUGAGUAGUCAGGAUAUGCUGUACAAAAGUACAGCAGAAGGGAUUACAUGAGGAUCACCCAUGUGUACUUCAUG [Omei Ex6 B10] (Eterna round: R97, puzzle: Exclusion 6)
A. 940 nM

Q. Need apparent KD of MS2 coat protein of CCCGACAUGUCUUCGUAAUACAUGAGGAUCACCCAUGUCACGUAGGAUAUCCAGUCGGUAAGAGAGGAGAAGGAUGUAAGAAAU [Vedite] (Eterna round: R96, puzzle: Exclusion NG 3) , thanks.
A. 15.5 nM

Q. For CGCCUGUGAGGAUAUUAGUAGUAGUCAGAAAAGACUAUUACUGAGAAGGUACAUGAGGAUCACCCAUGUUGGCG [Mat - Exclusion 4 - Eli Mod - D41] (Eterna round: R97, puzzle: Exclusion 4) , what is its reported apparent KD of MS2 coat protein?
A. 14.8 nM

Q. Endpoint output: apparent KD of MS2 coat protein of AGGAUGCUAGGAUAUACAGGUUGAAAACUGAUCGGCGCCAGACAUGAGGAUCACCCAUGUAGAAGGAGCGAGGC [EX2 B.26] (Eterna round: R97, puzzle: Exclusion 2) . Value?
A. 36.1 nM

---

Can you tell me apparent KD of K4 kissing-loop reporter for the items I'm about to list?
# Test system: K4 kissing-loop RNA reporter;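 note: bound reporter read as fluorescence of individual clusters on recovered sequencing chips by microscopy, with normalized cluster intensities fitted with a binding model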
# protocol-description: apparent KD of K4 kissing-loop reporter; higher = weaker reporter binding
# reported-conditions: Eterna round: R107; input ligand: none
State the answer as a number, implicitly in nM.

Q. Bench note: what apparent KD of K4 kissing-loop reporter did CAACAGCUUACGGCCGCCACUCCUUUAUAUGGUGCGCACCGUUGAGCUCUAGUGAUGUUGGUGCCGAGGACCGGGUAGGAAAGUA [theeternabot_sameState_KL_Trp_B_31] show?
A. 331

Q. Requested read-out: apparent KD of K4 kissing-loop reporter. Entry: UGAUAGGACAGAAGGAGCGGAGGUCGUCAAAGACGACCAAUAACGUUGAUAGGAGUGAUGUUCCAGGUAGGUCGCUGUCCUAUCU [ArgBX 29 #SwitchBubble #StaticStem]
A. 121

Q. What value of apparent KD of K4 kissing-loop reporter has been reported for the following sequence? UGGUUUAACUGAAGGAGCGGCAAUUGAUAAGUAAAUAUAGUGAUGUUAUAUAAGAUAGAGAGCCAGGUAGGUCGCAGAGGUAUUU [ExArgB.O]
A. 141

Q. For the sequence shown here, UUGGUUGUCGUAGGAUAUGUAGGAUAUUCUAAAAUAUGAAGUGAUGUUUCUAUAAUAAGAAGAAGGACAGAAGGACGAUAACCAU [FmnBS 2 - Salish transfer #DoubleAptamer] , give the reported apparent KD of K4 kissing-loop reporter.
A. 111

Q. Quick one: apparent KD of K4 kissing-loop reporter of CCGGGCGGCUGAAGGAGCGGGCGGGCCCGAGUGAUGUUCGGGUGGACCGUGAGGUCCGGUGCCCAGGUAGGUCGCGGUUCCGCCC [#2 Same State - Arginine B Attempt #8 (HarryS)] ?
A. 162

Q. Look up apparent KD of K4 kissing-loop reporter for this sequence: UAGGAGUGAUGUUCCAUAUCUUGAGCCGAAGGAGCGGCAUUAUAGCCAGGUAGGUCGCGGCAGAAGGUACCAGUGAUGUUGGAAA [Same State Arginine A GF5]
A. 206

Q. Value lookup for apparent KD of K4 kissing-loop reporter; key = AACGUUUUGAGAAGGAGCGCGUUAAGCAGUGAUGUUGCUGUAUUUUAUCCAAUUCAUAUAUCGCAGGUAGGUCGCUCAAUACGUA [JR_Nu_SSArginiB_Sub027]
A. 557

Q. Entry under review: CGUUUAUAGCAGGAUACCAGUACCCAUUAUGUACGUUUAUAGUAGAGUGAUGUUCUAAAGUACCCUUGGCAGCUUCCUGUGACCC [ExTheophylB.Aa] . Reported apparent KD of K4 kissing-loop reporter?
A. 181

---

# Test system: MS2 coat protein
# protocol-description: apparent KD of MS2 coat protein; designed switch direction (-1 OFF switch, 1 ON switch): -1; higher = weaker reporter binding
# reported-conditions: input ligand: FMN 200 uM
Assign criterion met whenever apparent KD of MS2 coat protein does not fall below 500 nM; assign criterion not met whenever it does.

Q. Assess whether reported apparent KD of MS2 coat protein for CACCUGAAAGGAGGAUAUCUUACAUGAGGAUCACCCAUGUAAUAAAUGAGAAUUUCGAAUGUAAUAGAGAAGGCCUGAAAAGGC [Ostracism 85 - Jieux - Exclusion NG 2] (Eterna round: R96, puzzle: Exclusion NG 2) sits at 500 nM or higher.
A. criterion not met

Q. Hello, I need to know if UAACUUUUUGUAAGGAUAUCGGUCCCAAGGGACAACGAGAAGGUACAUGAGGAUCACCCAUGUGAAAUAAGAAU [Mod of Zala 20 - Jieux - Brourd's Mod of Exclusion 4] (Eterna round: R97, puzzle: Brourd's mod of Exclusion 4) has measured apparent KD of MS2 coat protein not below 500 nM. Thanks!
A. criterion not met

Q. # bool: apparent KD of MS2 coat protein of CAGUACUGAGGAUAUACAUGAGGAUCACCCAUGUGUGUGAGAAAAUUAAUAAAAGAAUGUAGAAGGCGGUGCUG [JR_Ex3_Sub041] (Eterna round: R97, puzzle: Exclusion 3) >= 500 nM
A. criterion met

Q. Decide: apparent KD of MS2 coat protein of CGGGACGUCCUGAUAAUAAGACAUGAGGAUCACCCAUGUCGGCAGGAUAUCAGUCCUUACGGUUAUGAGAAGGGUCGGCAACCA [Quatis] (Eterna round: R96, puzzle: Exclusion NG 3) >= 500 nM?
A. criterion not met

---

# Tested on: MS2 coat protein
# protocol-description: apparent KD of MS2 coat protein; designed switch direction (-1 OFF switch, 1 ON switch): -1; higher = weaker reporter binding
# reported-conditions: input ligand: FMN 200 uM
value-kind: apparent KD of MS2 coat protein (nM)
# unit: nM | format: bare number

Q. Would you kindly share the measured apparent KD of MS2 coat protein for UUCUUGGCAGGAUAUGCUCUUUUAGACAUGAGGAUCACCCAUGUGUUUAUUCUUUUUUUUGCAGAAGGGCCUUAAU [JR_E5_Sub044] (Eterna round: R96, puzzle: Exclusion 5) ?
A. 176

Q. Item under review: AUACCACGAGGAUAUCGUCUAUAAUACAUGAGGAUCACCCAUGUUAUAUCUGUAAUGUUUCGAGAAGGCGUGUGUU [JR_E5_Sub084] (Eterna round: R96, puzzle: Exclusion 5) . Reported apparent KD of MS2 coat protein?
A. 17

Q. May I ask what apparent KD of MS2 coat protein has been recorded for UAUUGAGAGCAGGAUAUAUUCCUGAUGUAUGAAGUAGAAGGGCUCACAUGAGGAUCACCCAUGUGAUCCUGAAU [Mat - Exclusion 6 - Eli Mod - D5] (Eterna round: R97, puzzle: Exclusion 6) ?
A. 15.5

Q. What apparent KD of MS2 coat protein value was documented for this sequence, CUGAAUCGAGGAUAUUGUACUGCUGACAUGAGGAUCACCCAUGUAUGUUAACUCAGCCGUCGAGAAGGCGAACAUA [BotMod 33 - Jieux - Exclusion 5] (Eterna round: R97, puzzle: Exclusion 5) ?
A. 12.8

Q. // apparent KD of MS2 coat protein lookup, key: AGCGGUGUUCAGGAUAUCUGGUUAUGACACAUGAGAGAAGGGAGCACAUGAGGAUCACCCAUGUGACCUUCGCG [Eternabot (Original) Solution 23] (Eterna round: R97, puzzle: Exclusion 6)
A. 16
